- Target Or System: human MCH receptor (Homo sapiens, UniProt Q99705)
- Sequence (Q99705 whole entry): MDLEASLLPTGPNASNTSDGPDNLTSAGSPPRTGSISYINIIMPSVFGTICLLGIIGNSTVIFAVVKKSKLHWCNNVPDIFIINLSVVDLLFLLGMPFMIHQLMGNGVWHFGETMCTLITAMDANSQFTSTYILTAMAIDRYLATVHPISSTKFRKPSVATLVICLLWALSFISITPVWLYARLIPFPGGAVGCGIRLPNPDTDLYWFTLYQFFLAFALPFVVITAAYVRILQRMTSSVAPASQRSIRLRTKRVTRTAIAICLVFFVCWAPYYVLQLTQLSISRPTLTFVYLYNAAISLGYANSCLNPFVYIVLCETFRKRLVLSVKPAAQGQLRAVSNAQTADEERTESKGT
- Experimental Details: Functional measurement of cellular calcium flow (FLIPR) in recombinant HEK293 cells expressing human MCH receptor
- Conditions: cellular assay, calcium flow after addition of agonist (MCH), HEK293 (PEAK Stable Cells) expressing human MCH receptor
Test Readout: log10(IC50) (log10 of the value in nM)
The figures below represent log10 of IC50, where IC50 is stated in nM.

| Compound | log10(IC50) |
| --- | --- |
| CCN1CCCC1Cn1c(C)nc2cc(NC(=O)Nc3ccc(OC(C)C)cc3)ccc21 (stereo not drawn) | 3.37 |
| CN(C)CCn1ccc2cc(NC(=O)Nc3ccc(-c4ccccc4)cc3)ccc21 | 3.44 |
| CCN1CCCC1Cn1c(C)nc2cc(NC(=O)Nc3ccc(Oc4ccccc4)cc3)ccc21 (stereo not drawn) | 2.52 |
| Cn1c(CN2CCCC2)cc2cc(NC(=O)Nc3ccc(Oc4ccccc4)cc3)ccc21 | 2.46 |
| CN(C)CCn1ccc2cc(NC(=O)Nc3ccc(Oc4ccccc4)cc3)ccc21 | 2.18 |
| Cc1c(C)n(CCN(C)C)c2ccc(NC(=O)Nc3ccc(Oc4ccccc4)cc3)cc12 | 3.02 |
| CN(C)CCn1cnc2cc(NC(=O)Nc3ccc(Oc4ccccc4)cc3)ccc21 | 2.11 |
| Cc1nc2cc(NC(=O)Nc3ccc(OC(C)C)cc3)ccc2n1CCN1CCOCC1 | 3.28 |

Request: Quick one: give measured log10(IC50) for CCCCOc1ccc(NC(=O)Nc2ccc3c(ccn3CCN(C)C)c2)cc1
Result: 2.18

====

- Target Or System: human MCH receptor (Homo sapiens)
- Experimental Details: Functional measurement of cellular calcium flow (FLIPR) in recombinant HEK293 cells expressing human MCH receptor
- Conditions: cellular assay, calcium flow after addition of agonist (MCH), HEK293 (PEAK Stable Cells) expressing human MCH receptor
Test Readout: log10(IC50) (log10 of the value in nM)
In plain terms, each number is the log10 of measured IC50 in nM.

Worked set:
| Compound | Numeric Readout |
| --- | --- |
| COc1cccc(Oc2ccc(NC(=O)Nc3ccc4c(ccn4CCN(C)C)c3)cc2)c1 [Example 109] | 3.11 |
| O=C(Nc1ccc(Oc2ccccc2)cc1)Nc1ccc2c(c1)ncn2CCN1CCCC1 [Example 11] | 2.15 |
| CN(C)CCn1ccc2cc(NC(=O)Nc3ccc(N4CC=CCC4)cc3)ccc21 [Example 24] | 2.93 |
| Cc1nc2cc(NC(=O)Nc3ccc(OC(C)C)cc3)ccc2n1CCN1CCCCC1 [Example 7] | 2.65 |
| CCc1nc2cc(NC(=O)Nc3ccc(Oc4ccccc4)cc3)ccc2n1CCN1CCCC1 [Example 14] | 2.48 |

Please look at the items below and tell me log10(IC50) for each one, in order.
1. Cc1ccccc1Oc1ccc(NC(=O)Nc2ccc3c(ccn3CCN(C)C)c2)cc1 [Example 108]
2. CC1CCCN(c2ccc(NC(=O)Nc3ccc4c(ccn4CCN(C)C)c3)cc2)C1 (centres unmarked) [Example 29]
3. Cc1nc2cc(NC(=O)Nc3ccc(Oc4ccccc4)cc3)ccc2n1CCN(C)C [Example 10]

Result:
1. 2.63
2. 3.46
3. 2.04

====

- Target Or System: human MCH receptor (Homo sapiens)
- Experimental Details: Functional measurement of cellular calcium flow (FLIPR) in recombinant HEK293 cells expressing human MCH receptor
- Conditions: cellular assay, calcium flow after addition of agonist (MCH), HEK293 (PEAK Stable Cells) expressing human MCH receptor
- Source text: In two simultaneously published articles in Nature (Nature, 400:261-264, 1999; Nature, 400:265-269, 1999, see enclosure), two groups separately described a highly specific receptor for melanin-concentrating hormone (MCH). MCH takes over important functions in the control of food intake. Compounds acting on the MCH receptor therefore have anorectic action and are suitable for the treatment of obesity. […]
pIC50: −log10 of the molar value.
Think of 6 as a floor: if pIC50 stands on it or above, it is label 1; beneath it, label 0.

| Molecular String | Discrete Label |
| --- | --- |
| Cc1nc2cc(NC(=O)Nc3ccc(OC(C)C)cc3)ccc2n1CCN(C)C | label 1 |
| CN(C)CCn1ccc2cc(NC(=O)Nc3ccc(OCc4ccccc4)cc3)ccc21 | label 0 |
| Cc1ccc(Oc2ccc(NC(=O)Nc3ccc4c(ccn4CCN(C)C)c3)cc2)cc1 | label 1 |
| Cc1nc2cc(NC(=O)Nc3ccc(Oc4ccccc4)cc3)ccc2n1CCN1CCCCC1 | label 1 |
| CN(C)CCn1ccc2cc(NC(=O)Nc3ccc(Oc4cccc(C(F)(F)F)c4)cc3)ccc21 | label 0 |
| CN(C)CCn1ccc2cc(NC(=O)Nc3ccc(Oc4cccnc4)cc3)ccc21 | label 1 |
| CC(C)COc1ccc(NC(=O)Nc2ccc3c(ccn3CCN(C)C)c2)cc1F | label 1 |
| CN(C)CCn1ccc2cc(NC(=O)Nc3ccc(N4CCCC4)cc3)ccc21 | label 0 |
| CN(C)CCn1c(-c2ccccc2)nc2cc(NC(=O)Nc3ccc(Oc4ccccc4)cc3)ccc21 | label 0 |
| CC(C)COc1ccc(NC(=O)Nc2ccc3c(ccn3CCN(C)C)c2)cc1 | label 1 |

Request: Determine whether this compound has pIC50 no lower than 6: CN(C)Cc1nc2cc(NC(=O)Nc3ccc(Oc4ccccc4)cc3)ccc2[nH]1
Result: label 0

Request: Is it the case that CN(C)CCn1ccc2cc(NC(=O)Nc3ccc(-c4ccc(F)cc4)cc3)ccc21 has pIC50 reaching or exceeding 6?
Result: label 0

Request: Decide: is the reported value of pIC50 for COc1cc(Nc2ccccc2)ccc1NC(=O)Nc1ccc2c(ccn2CCN(C)C)c1 equal to or greater than 6?
Result: label 0

Request: Please tell me: is the compound CCCCc1ccc(NC(=O)Nc2ccc3c(ccn3CCN(C)C)c2)cc1 at or over 6 in terms of pIC50?
Result: label 0

Request: Please check the record CC(C)COc1ccc(NC(=O)Nc2ccc3c(ccn3CCN(C)C)c2)c(F)c1 and state if its pIC50 is at or above 6.
Result: label 1

Request: Reported pIC50 at or above 6? Cc1nc2cc(NC(=O)Nc3ccc(Oc4ccccc4)cc3)ccc2n1CCN1CCCC1
Result: label 1
